# System: biotinyl-Phe-oxazolone
# PROTOCOL DETAILS: self-aminoacylation, catalytic enhancement (BFO) (fold over background); higher = more active; k-Seq, kA / k0A0; sequences stand for … in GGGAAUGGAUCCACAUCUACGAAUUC…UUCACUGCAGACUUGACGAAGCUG
Fewer inactive variants are shown than the library holds.
Label scheme for self-aminoacylation: lower than 4 is False, 4 and above is True.

In: Dear colleague, could you confirm whether AUACUUCAAAAAAUCGGUCUG [Fam1A.1 aminoacylation ribozyme variant] has self-aminoacylation at or above 4?
Out: True

In: Dear colleague, could you confirm whether CUACUUCAAACAAGCGGUCGG [Fam1A.1 aminoacylation ribozyme variant] has self-aminoacylation at or above 4?
Out: False

In: Dear colleague, could you confirm whether AAGCUUGCUAAUAGUCGCUAG [Fam3.1 aminoacylation ribozyme variant] has self-aminoacylation at or above 4?
Out: False

In: Dear colleague, could you confirm whether CCACAGUUCAAACAAUCGGUC [Fam1B.1 aminoacylation ribozyme variant] has self-aminoacylation at or above 4?
Out: True

In: Dear colleague, could you confirm whether AUACUUCAAACAAUCGGGCUG [Fam1A.1 aminoacylation ribozyme variant] has self-aminoacylation at or above 4?
Out: False

In: Dear colleague, could you confirm whether CCAUACUUCAAGCAAUCGGCC [Fam1B.1 aminoacylation ribozyme variant] has self-aminoacylation at or above 4?
Out: False

In: Dear colleague, could you confirm whether CUACUCCAAUCAAUCGGUCUG [Fam1A.1 aminoacylation ribozyme variant] has self-aminoacylation at or above 4?
Out: False

In: Dear colleague, could you confirm whether AUUGCCCUGGUCAUCGUGUGA [Fam2.1 aminoacylation ribozyme variant] has self-aminoacylation at or above 4?
Out: True

---

# Tested on: biotinyl-Trp-oxazolone
# PROTOCOL DETAILS: self-aminoacylation, catalytic enhancement (BWO) (fold over background); higher = more active; k-Seq, kA / k0A0; sequences stand for … in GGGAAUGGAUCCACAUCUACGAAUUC…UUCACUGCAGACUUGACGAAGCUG
Fewer inactive variants are shown than the library holds.
ASSAY ENDPOINT: self-aminoacylation
No unit in the answer, only the number.

In: Note down self-aminoacylation recorded for AUUCACCCAGGUCAUAGGGUG [Fam2.2 aminoacylation ribozyme variant]
Out: 2.08

In: Note down self-aminoacylation recorded for AUUACCCGGGUCAUCGAGUUA [Fam2.1 aminoacylation ribozyme variant]
Out: 2.23

In: Note down self-aminoacylation recorded for CGAAUUCAAACAAUCGGUCUG [Fam1A.1 aminoacylation ribozyme variant]
Out: 3.38

In: Note down self-aminoacylation recorded for AAGCUUGCUAAUAGUCGCUAG [Fam3.1 aminoacylation ribozyme variant]
Out: 2

In: Note down self-aminoacylation recorded for CAACUUCAAACAAUCCGUCUG [Fam1A.1 aminoacylation ribozyme variant]
Out: 2.31

In: Note down self-aminoacylation recorded for CGACACUUCAAGCAAUCGGUU [Fam1B.1 aminoacylation ribozyme variant]
Out: 2.37

In: Note down self-aminoacylation recorded for AAGUUCGCGAAUAGUCGCAAG [Fam3.1 aminoacylation ribozyme variant]
Out: 3.3

In: Note down self-aminoacylation recorded for CUACUUCAAAAAAUCGGGCUG [Fam1A.1 aminoacylation ribozyme variant]
Out: 3.06

In: Note down self-aminoacylation recorded for CUGCGUCAAACAAUCGGUCUG [Fam1A.1 aminoacylation ribozyme variant]
Out: 7.19

In: Note down self-aminoacylation recorded for CUACUUCAAUCAAUCGGCCUG [Fam1A.1 aminoacylation ribozyme variant]
Out: 30.3

In: Note down self-aminoacylation recorded for UUACUUCAAUCAAUCGGUCUG [Fam1A.1 aminoacylation ribozyme variant]
Out: 15

In: Note down self-aminoacylation recorded for AAGUGUGCUAAAAGUCGCAAG [Fam3.1 aminoacylation ribozyme variant]
Out: 4.61

In: Note down self-aminoacylation recorded for AAGUUUGCUAAUUGUCGCAAA [Fam3.1 aminoacylation ribozyme variant]
Out: 2.49

In: Note down self-aminoacylation recorded for CCAUGCUUCAAGCAAUCGGUC [Fam1B.1 aminoacylation ribozyme variant]
Out: 39

In: Note down self-aminoacylation recorded for CCACACUCCGAGCAAUCGGUC [Fam1B.1 aminoacylation ribozyme variant]
Out: 2.37

In: Note down self-aminoacylation recorded for AAGCUUGCUAAUAGUCGCAAA [Fam3.1 aminoacylation ribozyme variant]
Out: 2.2

In: Note down self-aminoacylation recorded for AUUACCUUCGUCAUCGAGUGA [Fam2.1 aminoacylation ribozyme variant]
Out: 2.15

In: Note down self-aminoacylation recorded for CCACACUUCAAUCAAUCAGUC [Fam1B.1 aminoacylation ribozyme variant]
Out: 7.45

In: Note down self-aminoacylation recorded for CAACUUCAAAGAAUCGGUCUG [Fam1A.1 aminoacylation ribozyme variant]
Out: 7.86

In: Note down self-aminoacylation recorded for CCACGCUUCAAACAAUCGGUC [Fam1B.1 aminoacylation ribozyme variant]
Out: 45.3

In: Note down self-aminoacylation recorded for CUUCUUCAAACAAUCAGUCUG [Fam1A.1 aminoacylation ribozyme variant]
Out: 5.05

In: Note down self-aminoacylation recorded for CUGCUACAAACAAUCGGUCUG [Fam1A.1 aminoacylation ribozyme variant]
Out: 2.27

In: Note down self-aminoacylation recorded for AAGUUUGCGAAUAGUCGCGAG [Fam3.1 aminoacylation ribozyme variant]
Out: 2.14

In: Note down self-aminoacylation recorded for AAUGUUGCUAAUAGUCGCAAG [Fam3.1 aminoacylation ribozyme variant]
Out: 2.02

In: Note down self-aminoacylation recorded for CCAAACUUCAAGUAAUCGGUC [Fam1B.1 aminoacylation ribozyme variant]
Out: 7.85

In: Note down self-aminoacylation recorded for AAGUGUGCUAAUAGUCGCAGG [Fam3.1 aminoacylation ribozyme variant]
Out: 2.17

In: Note down self-aminoacylation recorded for CUACUUCAACUAAUCGGUCUG [Fam1A.1 aminoacylation ribozyme variant]
Out: 8.63

In: Note down self-aminoacylation recorded for CGACUUCAAACAAUCGGUCCG [Fam1A.1 aminoacylation ribozyme variant]
Out: 4.64

In: Note down self-aminoacylation recorded for ACGUUUGCUAAAAGUCGCAAG [Fam3.1 aminoacylation ribozyme variant]
Out: 3.43

In: Note down self-aminoacylation recorded for CUACUUCAAACAAUCGGUCCC [Fam1A.1 aminoacylation ribozyme variant]
Out: 6.63

In: Note down self-aminoacylation recorded for CCACACUGCAAGCCAUCGGUC [Fam1B.1 aminoacylation ribozyme variant]
Out: 2.76

In: Note down self-aminoacylation recorded for AUACUUCAAAAAAUCGGUCUG [Fam1A.1 aminoacylation ribozyme variant]
Out: 3.25

In: Note down self-aminoacylation recorded for CCACAGUUCAAACAAUCGGUC [Fam1B.1 aminoacylation ribozyme variant]
Out: 12

In: Note down self-aminoacylation recorded for AUUCACCUAGUUCAUAGGGUG [Fam2.2 aminoacylation ribozyme variant]
Out: 3.14

In: Note down self-aminoacylation recorded for AAGUUGGCUAAUAGUCGAAAG [Fam3.1 aminoacylation ribozyme variant]
Out: 2.27
